Assayed system: human monocyte chemo-attractant protein-1 (MCP-1) (human, UniProt P13500 24-99)
Sequence (P13500 24-99): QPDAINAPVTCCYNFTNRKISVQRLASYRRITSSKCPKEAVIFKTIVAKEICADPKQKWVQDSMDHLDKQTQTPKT
Assay explanation: cell-based or functional assay
Outcome measure: IC50 Ca++ Flux (µg/mL)
Respond with the bare value in µg/mL.

binder="anti-MCP-1 mAb 1.2.1 (antibody, V domains shown) VH: QVQLVQSGAEVKKPGASVKVSCKVSGYTFTELSMHWVRQAPGKGLEWMGGFDPEDGETSYAQKFRGRVTMTEDTSTDTAHMELSSLRSEDTAVYYCATNDFWSGYFDYWGQGTLVTVSS VL: DIQMTQSPSSVSASVGDRVTITCRASQGIDIYLAWYQQKPGKAPKLLINAASSLQNGVPSRFGGSGSGTDFTLTISGLQPEDFATYYCQLTYFFPWTFGQGTKVEIKR" outcome_measure="IC50 Ca++ Flux" obs_value=0.18
binder="anti-MCP-1 mAb 1.13.1 (antibody, V domains shown) VH: QVQLVQSGAEVKKPGASVKVSCKVSGHTLTELSMHWVRQAPGKGLEWMGGFDPEDDETIYAQKFQDRVTMTEDTSTDTAYMELSSLRSEDTAVYYCATNDFWSGYFDCWGQGTLVTVSS VL: DIVLTQSPDSLAVCLGERATINCKSSQSVLYSPNNKNFLVWYQQRPGQPPKLLIYWASTRESGVPDRFSGSGSGTDFTLTISSLQAEDVAVYYCQQYYSSPWTFGQGTKVEIKR" outcome_measure="IC50 Ca++ Flux" obs_value=0.11

What IC50 Ca++ Flux value was documented for this binder, anti-MCP-1 mAb 3.4.1 (antibody, V domains shown) VH: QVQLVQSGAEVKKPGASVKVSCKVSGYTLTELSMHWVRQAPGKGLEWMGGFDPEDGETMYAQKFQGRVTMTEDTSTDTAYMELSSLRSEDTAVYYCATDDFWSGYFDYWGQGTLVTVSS VL: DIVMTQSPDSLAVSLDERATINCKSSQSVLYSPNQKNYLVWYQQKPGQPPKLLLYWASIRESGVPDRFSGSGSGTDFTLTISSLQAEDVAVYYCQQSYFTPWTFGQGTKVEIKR ?
0.24

These entries and their values trace back to patent US20050058639A1.
